target: VDR:RXRa (Homo sapiens, UniProt P11473;P19793 full;full); assay: no ligand; PBM; 270 nM : 90 nM RXRa; PBS pH 7.4, 2% milk, 0.02% Triton X-100, 1 mM DTT, BSA, 0.4 mg/ml salmon testes DNA; conditions: tags: His kept;His cleaved; copies: 1;1; label: surface-attached array probe
Sequence (P11473 whole entry, chain 1 of 2): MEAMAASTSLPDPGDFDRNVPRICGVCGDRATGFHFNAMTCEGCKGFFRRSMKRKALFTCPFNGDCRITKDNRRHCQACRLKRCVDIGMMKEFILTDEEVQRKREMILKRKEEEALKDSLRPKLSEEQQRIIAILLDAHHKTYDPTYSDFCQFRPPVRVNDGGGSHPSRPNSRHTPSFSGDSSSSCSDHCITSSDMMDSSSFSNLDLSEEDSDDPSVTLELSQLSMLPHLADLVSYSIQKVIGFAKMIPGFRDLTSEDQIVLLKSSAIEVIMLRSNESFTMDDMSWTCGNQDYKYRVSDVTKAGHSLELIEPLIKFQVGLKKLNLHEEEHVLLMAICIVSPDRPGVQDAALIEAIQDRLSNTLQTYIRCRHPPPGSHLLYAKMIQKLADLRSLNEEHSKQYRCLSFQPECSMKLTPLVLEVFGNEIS
Sequence (P19793 whole entry, chain 2 of 2): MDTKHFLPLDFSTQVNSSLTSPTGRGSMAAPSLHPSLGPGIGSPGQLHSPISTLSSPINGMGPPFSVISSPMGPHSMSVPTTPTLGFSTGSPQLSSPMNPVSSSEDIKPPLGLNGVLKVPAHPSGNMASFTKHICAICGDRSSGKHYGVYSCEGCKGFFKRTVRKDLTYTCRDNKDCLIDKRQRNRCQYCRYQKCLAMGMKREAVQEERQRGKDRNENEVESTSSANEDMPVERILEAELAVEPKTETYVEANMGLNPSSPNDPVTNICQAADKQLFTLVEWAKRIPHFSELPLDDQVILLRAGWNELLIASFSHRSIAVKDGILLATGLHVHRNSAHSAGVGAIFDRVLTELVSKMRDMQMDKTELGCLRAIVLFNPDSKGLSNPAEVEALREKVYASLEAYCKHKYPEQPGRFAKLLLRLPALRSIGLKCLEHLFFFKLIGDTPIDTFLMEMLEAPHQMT
reported-endpoint: binding signal

Task: Fill in: binding signal of NRC3_wobSeed88_DR3_A28G_o1 (dsDNA) DNA 1: GCTAGCCTAGGTCATGCGGGCCAGTATGGTGTCGGCGCGATTGACAGCGTAGAATGAAGG DNA 2: CCTTCATTCTACGCTGTCAATCGCGCCGACACCATACTGGCCCGCATGACCTAGGCTAGC is ___
Result: 3 PBM z-score against 500 random probes

// provenance: paper PMC6555819
